# PROTOCOL DETAILS: Human HepG2 cell viability assay in 384 well format
# Type: toxicity, cell-based
# Parameters: dose 125 nL, time 70.5 hour; concentration not given beside the values
# CONDITION CONTEXT: HepG2 cells, read-out: Inhibition
MEASURED PARAMETER: cytotoxicity at 70.5 h (%)

INSERT INTO assay_data (molecule, measured_parameter, readout_number) VALUES
  ('CSC(C)(C)CNC(=O)NC1CCN(C)CC1', 'cytotoxicity at 70.5 h', -3.38),
  ('COC1CCN(C(=O)Cc2csc(-c3ccccc3)n2)CC1', 'cytotoxicity at 70.5 h', -5.23),
  ('Cc1cccc(N2CCC(N3CCC4(CN(C)C(=O)O4)C3)CC2)c1C (configuration not stated)', 'cytotoxicity at 70.5 h', -9.4),
  ('CNc1cc(N2CCCC2CNCc2cccs2)ncn1 (configuration not stated)', 'cytotoxicity at 70.5 h', -1.51),
  ('O=C(c1cnc(-c2noc3cc(N4CCCC4)ccc23)s1)N1CCCC1', 'cytotoxicity at 70.5 h', -4.44),
  ('Cc1cc(CN(C)C(=O)C2CCCN(C(N)=O)C2)no1 (configuration not stated)', 'cytotoxicity at 70.5 h', -5.82),
  ('CC(O)CN1CCC(CNCc2ccccc2F)CC1 (configuration not stated)', 'cytotoxicity at 70.5 h', -1.41),
  ('Cc1nc2c(c(NCC(=O)NC(C)C)n1)Cc1ccccc1OC2', 'cytotoxicity at 70.5 h', -2.23),
  ('CCN1Cc2ccccc2CC2(CCN(C(=O)N(C)C)CC2)C1=O', 'cytotoxicity at 70.5 h', -5.37),
  ('O=C(O)Cc1cccc(-n2ccnc2-c2ccc(F)c(Cl)c2)c1', 'cytotoxicity at 70.5 h', -0.808),
  ('CCCc1cc(C(=O)N(C)Cc2ccc(OC)c3ncccc23)n(C)n1', 'cytotoxicity at 70.5 h', 2),
  ('Cn1cc(CN2CCOC3(CCCN(C(=O)c4ccco4)C3)C2)cn1 (configuration not stated)', 'cytotoxicity at 70.5 h', -6.59);
